# Target under test: sGCα1 (Homo sapiens, UniProt Q02108)
# Sequence (Q02108 whole entry): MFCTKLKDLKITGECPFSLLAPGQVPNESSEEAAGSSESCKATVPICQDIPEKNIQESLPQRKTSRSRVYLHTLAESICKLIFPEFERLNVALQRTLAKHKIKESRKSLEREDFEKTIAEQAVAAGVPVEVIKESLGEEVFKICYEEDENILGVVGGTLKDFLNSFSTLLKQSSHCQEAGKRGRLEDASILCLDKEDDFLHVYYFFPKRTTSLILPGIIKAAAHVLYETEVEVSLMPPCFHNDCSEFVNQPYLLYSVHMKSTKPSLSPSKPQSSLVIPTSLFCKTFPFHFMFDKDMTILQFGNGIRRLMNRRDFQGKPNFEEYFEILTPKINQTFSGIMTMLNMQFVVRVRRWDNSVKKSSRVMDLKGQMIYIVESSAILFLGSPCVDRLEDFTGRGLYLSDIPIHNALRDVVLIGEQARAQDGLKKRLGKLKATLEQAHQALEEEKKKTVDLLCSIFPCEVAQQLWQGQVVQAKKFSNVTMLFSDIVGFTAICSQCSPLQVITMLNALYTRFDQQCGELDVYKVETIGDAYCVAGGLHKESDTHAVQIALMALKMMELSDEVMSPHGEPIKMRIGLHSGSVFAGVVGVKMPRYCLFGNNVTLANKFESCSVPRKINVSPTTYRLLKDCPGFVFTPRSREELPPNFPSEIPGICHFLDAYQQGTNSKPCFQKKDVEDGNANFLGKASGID
# Test name: Binding affinity by immunoprecipitation with FITC-tagged peptide
# Parameters: endogenous sGCα1 was immunoprecipitated; endogenous in cells; host or cells: C81 cells (methods)
# Test conditions: C81 whole-cell extract (legend: LNCaP extract), room temperature, 2 hours, IP with anti-sGCα1, fluorescence 485/521 nm, nonlinear regression
Where no end group is shown, it is not given here.
Assay readout: pKd
Note: pKd values are expressed as the negative base-10 logarithm of concentration in M.

# lookup: pKd of Ac-TFCKAFPFHIIRRRRRRRR [Peptide A-8R] 4.94

Hey, just so you know, these numbers are from paper PMC3664642.
